Reported pEC50 values for the following molecules.
target: Sulfonylurea receptor 1, Kir6.2 (Homo sapiens, UniProt Q09428+Q14654); test: Repolarization of HEK293 cells expressing Kir6.2/SUR1 KATP channels
Sequence (Q14654 whole entry): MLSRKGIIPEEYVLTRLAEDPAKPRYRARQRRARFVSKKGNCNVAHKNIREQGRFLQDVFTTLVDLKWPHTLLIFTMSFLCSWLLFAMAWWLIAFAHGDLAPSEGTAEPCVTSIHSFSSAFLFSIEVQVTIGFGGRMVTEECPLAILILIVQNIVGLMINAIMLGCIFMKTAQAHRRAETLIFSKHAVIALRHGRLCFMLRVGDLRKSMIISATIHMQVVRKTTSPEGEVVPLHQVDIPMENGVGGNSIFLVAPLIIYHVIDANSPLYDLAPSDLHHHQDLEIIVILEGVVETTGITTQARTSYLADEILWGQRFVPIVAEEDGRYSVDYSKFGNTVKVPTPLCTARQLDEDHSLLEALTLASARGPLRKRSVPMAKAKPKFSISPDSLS
Sequence (Q09428 whole entry): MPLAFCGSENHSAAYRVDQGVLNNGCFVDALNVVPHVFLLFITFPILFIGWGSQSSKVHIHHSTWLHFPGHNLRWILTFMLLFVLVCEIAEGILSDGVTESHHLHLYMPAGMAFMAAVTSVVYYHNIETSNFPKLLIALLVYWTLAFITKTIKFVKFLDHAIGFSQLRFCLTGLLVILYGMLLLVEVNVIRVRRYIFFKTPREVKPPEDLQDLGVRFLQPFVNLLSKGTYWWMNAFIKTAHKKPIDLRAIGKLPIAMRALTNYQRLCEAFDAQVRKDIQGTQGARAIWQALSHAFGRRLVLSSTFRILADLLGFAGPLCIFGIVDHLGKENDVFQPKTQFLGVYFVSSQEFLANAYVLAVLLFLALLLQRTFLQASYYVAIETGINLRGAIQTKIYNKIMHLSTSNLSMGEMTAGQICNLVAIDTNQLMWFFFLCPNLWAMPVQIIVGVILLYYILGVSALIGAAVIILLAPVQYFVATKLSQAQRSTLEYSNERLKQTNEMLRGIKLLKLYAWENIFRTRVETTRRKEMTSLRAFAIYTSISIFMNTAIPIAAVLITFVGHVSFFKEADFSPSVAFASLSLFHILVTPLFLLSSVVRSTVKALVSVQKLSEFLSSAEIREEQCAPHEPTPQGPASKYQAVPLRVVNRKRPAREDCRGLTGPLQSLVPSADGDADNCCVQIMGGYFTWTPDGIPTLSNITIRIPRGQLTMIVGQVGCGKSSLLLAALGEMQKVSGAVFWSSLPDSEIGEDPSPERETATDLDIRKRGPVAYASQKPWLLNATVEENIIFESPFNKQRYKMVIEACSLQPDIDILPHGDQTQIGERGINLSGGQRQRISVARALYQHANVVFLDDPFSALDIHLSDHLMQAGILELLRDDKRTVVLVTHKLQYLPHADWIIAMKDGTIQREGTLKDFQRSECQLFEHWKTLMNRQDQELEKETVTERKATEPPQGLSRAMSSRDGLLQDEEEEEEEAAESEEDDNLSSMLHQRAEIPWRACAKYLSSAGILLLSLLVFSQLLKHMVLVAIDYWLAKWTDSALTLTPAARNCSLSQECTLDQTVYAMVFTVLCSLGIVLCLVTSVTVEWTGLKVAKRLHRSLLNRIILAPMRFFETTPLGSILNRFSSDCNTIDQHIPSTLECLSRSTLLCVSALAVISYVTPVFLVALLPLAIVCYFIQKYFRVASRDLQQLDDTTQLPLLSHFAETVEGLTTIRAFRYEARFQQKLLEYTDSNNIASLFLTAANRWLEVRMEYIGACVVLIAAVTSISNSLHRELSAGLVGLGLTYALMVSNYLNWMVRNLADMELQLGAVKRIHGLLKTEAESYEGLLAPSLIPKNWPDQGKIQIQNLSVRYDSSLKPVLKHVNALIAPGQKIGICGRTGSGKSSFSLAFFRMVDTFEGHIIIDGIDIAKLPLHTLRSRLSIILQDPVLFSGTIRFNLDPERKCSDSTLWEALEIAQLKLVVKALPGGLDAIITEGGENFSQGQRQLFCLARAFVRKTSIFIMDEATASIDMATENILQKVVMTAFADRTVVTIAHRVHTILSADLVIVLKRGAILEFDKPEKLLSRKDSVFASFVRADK
pEC50: −log10 of the molar value.
readout_label: pEC50

{"columns": ["chemical_smiles", "value_measured"],
 "data": [
  ["CC(C)(NC1=NS(=O)(=O)c2sc(Cl)cc2N1)c1ccccc1", 6.74],
  ["O=S1(=O)N=C(NC2(C(F)(F)F)CC2)Nc2cc(Cl)sc21", 6.28],
  ["O=S1(=O)NC(NC2(c3ccccc3)CC2)=Nc2cc(Cl)sc21", 6.09],
  ["CC1(NC2=NS(=O)(=O)c3sc(Br)cc3N2)CC1", 6.80]
]}

* * *

target: Sulfonylurea receptor 1, Kir6.2 (Homo sapiens, UniProt Q09428+Q14654); assay: Displacement of [3H]glibenclamide from human Kir6.2/SUR1 expressed in HEK293 cells in presence of 2 mM ATP; assay type: cell-based
readout_label: IC50 (nM)

{"columns": ["chemical_smiles", "value_measured"],
 "data": [
  ["CC(C)(NC1=NS(=O)(=O)c2sc(Cl)cc2N1)c1ccccc1", 81]
]}

* * *

test: Clearance in Sprague-Dawley rat at 2 mg/kg, po or 0.5 mg/kg, iv; format: ADME, organism-based; conditions: in vivo

{"columns": ["compound", "clearance (L/h/kg)"],
 "data": [
  ["CC1=Nc2ccc(Cl)cc2S(=O)(=O)N1 [DIAZOXIDE]", 0.48]
]}

* * *

experiment: Half life in Sprague-Dawley rat at 2.48 mg/kg, po; format: ADME, organism-based; set-up: dose 2.48 mg/kg, route oral; conditions: in vivo
readout_label: half-life (h)

{"columns": ["chemical_smiles", "readout_label", "unit_label", "value_measured"],
 "data": [
  ["CC1(NC2=NS(=O)(=O)c3sc(Br)cc3N2)CC1", "half-life", "h", 2.6]
]}

* * *

tested on: Rattus norvegicus; test: Reduction in plasma insulin level in anaesthetized Sprague-Dawley rat at 3 mg/kg, iv; assay type: functional
Reported inhibition in vivo at 3 mg/kg values for the following molecules.

{"columns": ["molecule", "inhibition in vivo at 3 mg/kg"],
 "data": [
  ["CC1(NC2=NS(=O)(=O)c3sc(Cl)cc3N2)CC1 [TIFENAZOXIDE]", "85%"],
  ["CC1(NC2=NS(=O)(=O)c3sc(Br)cc3N2)CC1", "97%"],
  ["CC1=Nc2ccc(Cl)cc2S(=O)(=O)N1 [DIAZOXIDE]", "53%"],
  ["O=S1(=O)N=C(NC2(C(F)(F)F)CC2)Nc2cc(Cl)sc21", "90%"],
  ["CC(C)(NC1=NS(=O)(=O)c2sc(Cl)cc2N1)c1ccccc1", "86%"]
]}

* * *

assay: Half life in Sprague-Dawley rat at 1.89 mg/kg, po; format: ADME, organism-based; set-up: dose 1.89 mg/kg, route oral; details: in vivo

{"columns": ["compound", "half-life [h]"],
 "data": [
  ["CC1(NC2=NS(=O)(=O)c3sc(Cl)cc3N2)CC1 [TIFENAZOXIDE]", 4.17]
]}

* * *

assay: Tmax in Sprague-Dawley rat at 2.3 mg/kg, po or 1.24 mg/kg, iv; type: ADME, organism-based; details: in vivo

{"columns": ["chemical_smiles", "unit_label", "Tmax"],
 "data": [
  ["CC(C)(NC1=NS(=O)(=O)c2sc(Cl)cc2N1)c1ccccc1", "min", 15]
]}
